- Test system: T1, human PILRA G78 on cells (human, UniProt Q9UKJ1 20-303)
- T1 construct: wild-type iMicroglia are R78/G78 heterozygous (said in the assay field); also called hPILRA; hPILRA G78
- T1 sequence (Q9UKJ1 20-303 R78G limits assumed): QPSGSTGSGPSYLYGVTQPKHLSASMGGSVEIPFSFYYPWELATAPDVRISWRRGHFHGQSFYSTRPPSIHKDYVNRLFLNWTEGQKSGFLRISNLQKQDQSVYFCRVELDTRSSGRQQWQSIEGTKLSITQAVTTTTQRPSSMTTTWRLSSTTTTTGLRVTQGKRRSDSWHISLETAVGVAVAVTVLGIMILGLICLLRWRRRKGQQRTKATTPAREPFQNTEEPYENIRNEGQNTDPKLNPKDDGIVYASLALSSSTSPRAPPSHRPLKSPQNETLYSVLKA
- Protocol description: flow cytometry on HEK293 cells expressing hPILRA G78
pEC50: −log10 of the molar value.
Endpoint label: pEC50

Binder | Endpoint result
Anti-PILRA antibody clone 11 (antibody, V domains shown) VH: EVKLVESGGGLVRPGGSQKLSCAVSGFAFSGYDMSWVRQTPEKRLEWVATISNGGRHTYYPDSVKGRFTISRDNARNTLYLQMSSLRSEDTALYYCARQKTWDVHAMDYWGQGTSVTVSS VL: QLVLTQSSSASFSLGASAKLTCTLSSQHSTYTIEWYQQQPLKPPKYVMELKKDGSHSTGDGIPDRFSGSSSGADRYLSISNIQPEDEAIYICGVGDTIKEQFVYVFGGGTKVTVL | 7.98
Anti-PILRA antibody clone 1 (antibody, V domains shown) VH: EVQLVESGGGLVQPGRSLRLSCAVSGFTFDDYAMHWVRQAPGKGLEWVSGFSWNSGSIGYPDSVKGRFTISRDNAKNSLYLQMNSLRAEDTAFYYCAKDKSISAAGRFDYWGQGTLVTVSS VL: DIQMTQSPSSLSASVGDRVTITCQASRRINNYLNWYQQKPGKAPKLLIYDASNLETGVPSRFTGSGSGTDFTLTISSLQPEDIATYYCQQYDNLPLTFGGGTKIKIK | 7.86
Anti-PILRA antibody clone 8 (antibody, V domains shown) VH: QVQLVQSGAEVKKPGASVKVSCKASGYTFTGHYMHWVRQAPGQGLEWMGWINPNSGDTDYAQKFQGRVTMTRDTSISTAYMDLNRLRSDDTAVFYCAREGLDGDPFDYWGQGTLVTVSS VL: EIMLTQTPLSSPVTLGQPASISCRSSQSLVHSDGNTYLSWLQQRPGQPPRLLIYNISNRFSGVPDRFSGRGAGTDFTLKISRVEAEDVGVYYCIQTTQFSTFGQGTKLEIK | 6.27

Value source: patent US20260109763A1
